Reported ratio of amounts bound (vs GLS3000) values follow for various binders
# target_system: CD3ε homodimer protein (human, UniProt P07766 23-126, limits assumed)
# Sequence (P07766 23-126 limits assumed): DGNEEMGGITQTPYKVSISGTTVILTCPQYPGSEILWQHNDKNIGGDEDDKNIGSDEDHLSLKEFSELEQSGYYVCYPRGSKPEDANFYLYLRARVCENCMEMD
# assay_overview: SPR, immobilized CD3ε homodimer;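 also: biacore T200 surface plasmon resonance at 25 °C, antibody variants flowed as analytes over amine-coupled CD3ε homodimer on a CM4 chip, variant binding amount divided by that of GLS3000 antibody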
// response body must contain only the number

Example results:
>  <binder>
GLS3000 S26D (antibody, name in Kabat numbering, V domains shown, one-arm format as m2) VH: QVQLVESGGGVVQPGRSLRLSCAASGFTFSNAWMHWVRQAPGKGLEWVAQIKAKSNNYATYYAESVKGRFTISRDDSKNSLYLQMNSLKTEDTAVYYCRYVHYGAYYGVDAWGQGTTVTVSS VL: DIVMTQSPLSLPVTPGEPASISCRSDQSLVHSNRNTYLHWYQQKPGQAPRLLIYKVSNRFSGVPDRFSGSGSGTDFTLKISRVEAEDVGVYYCGQGTQVPYTFGQGTKLEIK

>  <measured_value>
0.86

$$$$
>  <binder>
GLS3000 S27eT (antibody, name in Kabat numbering, V domains shown, one-arm format as m2) VH: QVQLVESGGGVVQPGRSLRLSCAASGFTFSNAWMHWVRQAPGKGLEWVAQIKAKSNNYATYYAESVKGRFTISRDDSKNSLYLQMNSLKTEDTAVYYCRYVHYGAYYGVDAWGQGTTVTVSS VL: DIVMTQSPLSLPVTPGEPASISCRSSQSLVHTNRNTYLHWYQQKPGQAPRLLIYKVSNRFSGVPDRFSGSGSGTDFTLKISRVEAEDVGVYYCGQGTQVPYTFGQGTKLEIK

>  <measured_value>
0.97

$$$$
>  <binder>
GLS3000 Q27D (antibody, name in Kabat numbering, V domains shown, one-arm format as m2) VH: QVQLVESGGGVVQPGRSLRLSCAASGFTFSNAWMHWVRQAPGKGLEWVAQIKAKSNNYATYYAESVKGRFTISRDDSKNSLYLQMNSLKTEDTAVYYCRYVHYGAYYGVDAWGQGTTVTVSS VL: DIVMTQSPLSLPVTPGEPASISCRSSDSLVHSNRNTYLHWYQQKPGQAPRLLIYKVSNRFSGVPDRFSGSGSGTDFTLKISRVEAEDVGVYYCGQGTQVPYTFGQGTKLEIK

>  <measured_value>
0.85

$$$$
>  <binder>
GLS3000 S25L (antibody, name in Kabat numbering, V domains shown, one-arm format as m2) VH: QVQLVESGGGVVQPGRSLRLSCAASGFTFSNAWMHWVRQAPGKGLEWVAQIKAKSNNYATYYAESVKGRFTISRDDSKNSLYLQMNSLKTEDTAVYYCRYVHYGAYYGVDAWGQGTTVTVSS VL: DIVMTQSPLSLPVTPGEPASISCRLSQSLVHSNRNTYLHWYQQKPGQAPRLLIYKVSNRFSGVPDRFSGSGSGTDFTLKISRVEAEDVGVYYCGQGTQVPYTFGQGTKLEIK

>  <measured_value>
0.24

$$$$
>  <binder>
GLS3000 R45D (antibody, name in Kabat numbering, V domains shown, one-arm format as m2) VH: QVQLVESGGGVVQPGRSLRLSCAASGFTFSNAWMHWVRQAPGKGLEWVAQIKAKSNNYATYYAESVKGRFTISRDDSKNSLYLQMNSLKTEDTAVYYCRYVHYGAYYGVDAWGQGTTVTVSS VL: DIVMTQSPLSLPVTPGEPASISCRSSQSLVHSNRNTYLHWYQQKPGQAPDLLIYKVSNRFSGVPDRFSGSGSGTDFTLKISRVEAEDVGVYYCGQGTQVPYTFGQGTKLEIK

>  <measured_value>
0.77

$$$$
>  <binder>
GLS3000 H34M (antibody, name in Kabat numbering, V domains shown, one-arm format as m2) VH: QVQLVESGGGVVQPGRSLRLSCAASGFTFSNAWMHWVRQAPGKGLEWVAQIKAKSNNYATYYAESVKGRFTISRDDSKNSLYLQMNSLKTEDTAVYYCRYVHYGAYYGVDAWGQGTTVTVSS VL: DIVMTQSPLSLPVTPGEPASISCRSSQSLVHSNRNTYLMWYQQKPGQAPRLLIYKVSNRFSGVPDRFSGSGSGTDFTLKISRVEAEDVGVYYCGQGTQVPYTFGQGTKLEIK

>  <measured_value>
0.35

$$$$
>  <binder>
GLS3000 R29G (antibody, name in Kabat numbering, V domains shown, one-arm format as m2) VH: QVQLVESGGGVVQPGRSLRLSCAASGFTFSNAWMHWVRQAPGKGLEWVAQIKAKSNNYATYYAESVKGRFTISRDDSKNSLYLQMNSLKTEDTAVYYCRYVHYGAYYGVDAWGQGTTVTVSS VL: DIVMTQSPLSLPVTPGEPASISCRSSQSLVHSNGNTYLHWYQQKPGQAPRLLIYKVSNRFSGVPDRFSGSGSGTDFTLKISRVEAEDVGVYYCGQGTQVPYTFGQGTKLEIK

>  <measured_value>
0.67

$$$$
>  <binder>
GLS3000 S56Y (antibody, name in Kabat numbering, V domains shown, one-arm format as m2) VH: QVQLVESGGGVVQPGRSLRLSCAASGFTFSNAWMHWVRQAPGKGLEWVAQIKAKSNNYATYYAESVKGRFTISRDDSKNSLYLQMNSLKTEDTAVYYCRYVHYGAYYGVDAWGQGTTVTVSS VL: DIVMTQSPLSLPVTPGEPASISCRSSQSLVHSNRNTYLHWYQQKPGQAPRLLIYKVSNRFYGVPDRFSGSGSGTDFTLKISRVEAEDVGVYYCGQGTQVPYTFGQGTKLEIK

>  <measured_value>
1.46

$$$$

Lookup: Report measured ratio of amounts bound (vs GLS3000); entry is GLS3000 N53Q (antibody, name in Kabat numbering, V domains shown, one-arm format as m2) VH: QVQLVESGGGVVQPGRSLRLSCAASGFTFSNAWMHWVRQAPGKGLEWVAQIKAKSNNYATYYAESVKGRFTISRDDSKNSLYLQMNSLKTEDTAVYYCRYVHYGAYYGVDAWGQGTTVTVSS VL: DIVMTQSPLSLPVTPGEPASISCRSSQSLVHSNRNTYLHWYQQKPGQAPRLLIYKVSQRFSGVPDRFSGSGSGTDFTLKISRVEAEDVGVYYCGQGTQVPYTFGQGTKLEIK
Found: 0.77

Lookup: Query ratio of amounts bound (vs GLS3000) for GLS3000 R24Q (antibody, name in Kabat numbering, V domains shown, one-arm format as m2) VH: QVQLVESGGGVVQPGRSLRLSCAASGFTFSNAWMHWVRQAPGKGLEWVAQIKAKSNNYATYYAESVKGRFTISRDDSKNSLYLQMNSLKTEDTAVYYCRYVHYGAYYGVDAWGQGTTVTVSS VL: DIVMTQSPLSLPVTPGEPASISCQSSQSLVHSNRNTYLHWYQQKPGQAPRLLIYKVSNRFSGVPDRFSGSGSGTDFTLKISRVEAEDVGVYYCGQGTQVPYTFGQGTKLEIK
Found: 0.9
